- assayTarget: Mitogen-activated protein kinase 7 (Mus musculus, UniProt Q9WVS8)
- Sequence (Q9WVS8 whole entry): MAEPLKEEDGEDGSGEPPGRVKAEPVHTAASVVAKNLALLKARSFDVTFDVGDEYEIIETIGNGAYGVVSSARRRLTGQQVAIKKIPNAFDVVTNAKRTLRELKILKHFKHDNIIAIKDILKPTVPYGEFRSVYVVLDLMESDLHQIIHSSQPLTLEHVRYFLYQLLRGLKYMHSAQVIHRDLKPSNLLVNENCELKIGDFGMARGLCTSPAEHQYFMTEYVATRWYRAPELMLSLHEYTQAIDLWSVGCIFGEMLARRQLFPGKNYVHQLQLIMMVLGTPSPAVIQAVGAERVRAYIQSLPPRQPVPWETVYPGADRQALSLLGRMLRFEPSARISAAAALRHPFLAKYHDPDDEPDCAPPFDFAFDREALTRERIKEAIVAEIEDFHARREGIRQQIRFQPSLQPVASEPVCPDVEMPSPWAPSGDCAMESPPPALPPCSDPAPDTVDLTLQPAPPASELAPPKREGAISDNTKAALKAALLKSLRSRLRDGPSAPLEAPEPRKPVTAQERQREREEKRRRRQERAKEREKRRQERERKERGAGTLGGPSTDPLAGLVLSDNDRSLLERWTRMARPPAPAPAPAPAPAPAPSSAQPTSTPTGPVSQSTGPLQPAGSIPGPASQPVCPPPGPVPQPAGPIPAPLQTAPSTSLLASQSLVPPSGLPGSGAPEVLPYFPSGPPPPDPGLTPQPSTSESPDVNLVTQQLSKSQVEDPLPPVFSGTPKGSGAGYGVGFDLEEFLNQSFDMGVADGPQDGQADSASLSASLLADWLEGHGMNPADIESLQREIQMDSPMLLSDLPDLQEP
- procedureText: Activation of ERK5 in MEF cells
quantityKind: pIC50
# pIC50 is unitless: minus log10 of the molar concentration; print number only

query: Which measured pIC50 value corresponds to CN1CCN(c2cnc3c(C4CCN(C(=O)c5ccc(OC(F)(F)F)cc5N)CC4)ncnc3c2)CC1 [BAY-885] ?
result: 6.92

###

Kindly state Selectivity Index for each of the entries shown.
- Species: Homo sapiens
Respond numerically, and do not add a unit to the figure.

query: Which measured Selectivity Index value corresponds to C[C@H](N)C(=O)N[C@@H](CCCNC(=N)N)C(=O)N[C@@H](CCCCNC(=O)C[C@@H](NC(=O)CCCCCNC(=O)[C@H]1O[C@@H](n2cc(I)c3c(N)ncnc32)[C@H](O)[C@@H]1O)C(=O)O)C(=O)N[C@@H](CCCNC(=N)N)C(=O)N[C@@H](CCC(=O)O)C(=O)N[C@H](C(=O)N[C@@H](C)C(=O)N[C@H](CCCCN)C(N)=O)[C@H](C)O ?
result: 4900

query: Which measured Selectivity Index value corresponds to C[C@H](N)C(=O)N[C@@H](CCCNC(=N)N)C(=O)N[C@@H](CCCCNC(=O)C[C@@H](NC(=O)CCCCCNC(=O)[C@H]1O[C@@H](n2cnc3c(N)ncnc32)[C@H](O)[C@@H]1O)C(N)=O)C(=O)N[C@@H](CCCCN)C(=O)N[C@@H](CCC(=O)O)C(=O)N[C@H](C(=O)N[C@@H](C)C(N)=O)[C@H](C)O ?
result: 9

query: Which measured Selectivity Index value corresponds to C[C@H](N)C(=O)N[C@@H](CCCNC(=N)N)C(=O)N[C@@H](CCCCNC(=O)C[C@@H](NC(=O)CCCCCNC(=O)[C@H]1O[C@@H](n2cnc3c(N)ncnc32)[C@H](O)[C@@H]1O)C(N)=O)C(=O)N[C@@H](CCCCN)C(=O)N[C@@H](CCC(N)=O)C(=O)N[C@H](C(=O)N[C@@H](C)C(=O)N[C@@H](CCCNC(=N)N)C(=O)N[C@@H](CCCNC(=N)N)C(=O)N[C@@H](CCCNC(=N)N)C(=O)N[C@@H](CCCNC(=N)N)C(=O)N[C@@H](CCCNC(=N)N)C(=O)N[C@@H](CCCNC(=N)N)C(N)=O)[C@H](C)O ?
result: 90

query: Which measured Selectivity Index value corresponds to C[C@H](N)C(=O)N[C@@H](CCCNC(=N)N)C(=O)N[C@@H](CCCCNC(=O)C[C@@H](NC(=O)CCCCCNC(=O)[C@H]1O[C@@H](n2cnc3c(N)ncnc32)[C@H](O)[C@@H]1O)C(=O)O)C(=O)N[C@@H](CCCCN)C(=O)N[C@@H](CCC(N)=O)C(=O)N[C@H](C(=O)N[C@@H](C)C(N)=O)[C@@H](C)O ?
result: 50
